From: patent US11970479B2

Provide the recorded pEC50 for the entries that follow.
Target: human M4 muscarinic acetylcholine receptor (Homo sapiens, UniProt P08173)
Sequence (P08173 whole entry): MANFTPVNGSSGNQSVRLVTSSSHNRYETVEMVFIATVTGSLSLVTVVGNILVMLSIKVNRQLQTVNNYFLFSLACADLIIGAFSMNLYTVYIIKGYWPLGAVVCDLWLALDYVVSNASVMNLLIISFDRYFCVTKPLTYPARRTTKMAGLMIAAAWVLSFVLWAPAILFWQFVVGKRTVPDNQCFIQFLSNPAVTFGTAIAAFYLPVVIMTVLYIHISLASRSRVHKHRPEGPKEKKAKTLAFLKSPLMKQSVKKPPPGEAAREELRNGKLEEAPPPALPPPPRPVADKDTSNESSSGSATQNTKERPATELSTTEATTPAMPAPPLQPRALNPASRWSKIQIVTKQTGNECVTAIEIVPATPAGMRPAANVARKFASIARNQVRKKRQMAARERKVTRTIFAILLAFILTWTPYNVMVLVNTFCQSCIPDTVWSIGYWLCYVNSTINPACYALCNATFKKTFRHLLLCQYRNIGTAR
Test: human FLIPR-based M4 PAM assay (CHO-K1 cells with human M4 receptor and Gαqi5, calcium dye fluorescence, EC20 acetylcholine)
Conditions: inflection point (IP) of the dose response curve, human M4 receptor/Gαqi5, acetylcholine at 20% of maximum response, read-out: M4PAM Hu IP
Protocol: In a typical experiment the M4 muscarinic acetylcholine receptor modulating activity of the compounds of the present invention was determined in accordance with the following experimental method. […] Following dye loading the cell plates are placed in a FLIPR Tetra instrument and while monitoring dye fluorescence (excitation […]), 10 uL of test substance at increasing concentrations is added, and fluorescence values are recorded for 4 min. […]
Reminder that pEC50 means the negative base-10 logarithm of the concentration expressed in mol/L.

Give human M4 muscarinic acetylcholine receptor (Homo sapiens, UniProt P08173) pEC50 for the following compound: COc1cc2ccc(-c3ncc(Cl)cc3-c3cnn(CCC(C)C)c3)cc2nn1
6.88

Using human M4 muscarinic acetylcholine receptor (Homo sapiens, UniProt P08173) as the test system, report measured pEC50 of CCc1ccc(-c2cnn(CCC(C)C)c2)c(-c2ccc3cccnc3c2)n1 .
6.85

Report pEC50 on human M4 muscarinic acetylcholine receptor (Homo sapiens, UniProt P08173) for this entry: COc1cc2ccc(-c3nc(C#N)ccc3-c3cnn(CC4(C(F)F)CC4)c3)cc2nn1
7.36

Give pEC50 for this entry on human M4 muscarinic acetylcholine receptor (Homo sapiens, UniProt P08173): Cc1cnc(-c2ccc3cccnc3c2)c(-c2cnn(CCC(C)C)c2)c1
6.65

Give pEC50 for COc1cc2ccc(-c3nc(C)c(C)cc3-c3cnn(CC(C)(C)OC)c3)cc2nn1 tested on human M4 muscarinic acetylcholine receptor (Homo sapiens, UniProt P08173).
6.73

Provide pEC50, recorded with human M4 muscarinic acetylcholine receptor (Homo sapiens, UniProt P08173), of CC(C)CCn1cc(-c2cccnc2-c2ccc3ccc(Cl)nc3c2)cn1
7.08

Please respond with reported pEC50 (system human M4 muscarinic acetylcholine receptor (Homo sapiens, UniProt P08173)) for CC1(Cn2cc(-c3ccc(C#N)nc3-c3ccc4cccnc4c3)cn2)CC1 .
7.06

State pEC50 on human M4 muscarinic acetylcholine receptor (Homo sapiens, UniProt P08173). Entry: COc1cc2ccc(-c3nc(C(F)F)ccc3-c3cnn(CC(C)(C)C)c3)cc2nn1
7.28

Determine reported pEC50 for Cc1ccc2ccc(-c3nc(C#N)ccc3-c3cnn(CC(C)(C)C)c3)cc2n1 ; test system: human M4 muscarinic acetylcholine receptor (Homo sapiens, UniProt P08173).
7.04

Fill in pEC50 for CC(C)C(F)(F)Cn1cc(-c2ccc(C#N)nc2-c2ccc3cccnc3c2)cn1 tested with human M4 muscarinic acetylcholine receptor (Homo sapiens, UniProt P08173).
7.59

Tell me its pEC50 on human M4 muscarinic acetylcholine receptor (Homo sapiens, UniProt P08173): COc1cc2ccc(-c3nc(C#N)c(C)cc3-c3cnn(CCC(C)(C)OC)c3)cc2nn1
6.95

Enter recorded pEC50 with human M4 muscarinic acetylcholine receptor (Homo sapiens, UniProt P08173) for c1cnc(-c2ccc3cccnc3c2)c(-c2cnn(CCC3CC3)c2)c1 here.
6.62

Return reported pEC50 for target or system human M4 muscarinic acetylcholine receptor (Homo sapiens, UniProt P08173), item CC1(Cn2cc(-c3cccnc3-c3ccc4cccnc4c3)cn2)CCCCC1 .
7.28

Enter measured pEC50, system human M4 muscarinic acetylcholine receptor (Homo sapiens, UniProt P08173), for the compound shown: N#Cc1ccc(-c2cnn(CC3(F)CC3)c2)c(-c2ccc3cccnc3c2)n1
6.96

Name the value of pEC50 reported for COc1cc2ccc(-c3nc(C)ccc3-c3cnn(CC4CCC(F)CC4)c3)cc2nn1 (centres unmarked) when tested on human M4 muscarinic acetylcholine receptor (Homo sapiens, UniProt P08173).
7.37

Write pEC50 of COc1cc2ccc(-c3nc(C)ccc3-c3cnn(CC4CCC(F)(F)CC4)c3)cc2nn1 ; system used: human M4 muscarinic acetylcholine receptor (Homo sapiens, UniProt P08173)
7.25

// fetch pEC50; item: COc1cc2ccc(-c3nc(C)ccc3-c3cnn(CCCC(F)(F)F)c3)cc2nn1 ; system: human M4 muscarinic acetylcholine receptor (Homo sapiens, UniProt P08173)
6.57

Tell me pEC50 of CCCc1ccc(-c2cnn(CCC(C)C)c2)c(-c2ccc3cccnc3c2)n1 when tested on human M4 muscarinic acetylcholine receptor (Homo sapiens, UniProt P08173).
6.73

Give pEC50 for COc1cc2ccc(-c3nc(C)ccc3-c3cnn(CC4CC4(C)C)c3)cc2nn1 (centres unmarked) tested on human M4 muscarinic acetylcholine receptor (Homo sapiens, UniProt P08173).
7.09

Provide the reported pEC50 (system: human M4 muscarinic acetylcholine receptor (Homo sapiens, UniProt P08173)) for COc1cc2ccc(-c3nc(C)ccc3-c3cnn(C4CCC(F)(F)CC4)c3)cc2nn1
6.85

Supply pEC50 measured with human M4 muscarinic acetylcholine receptor (Homo sapiens, UniProt P08173) for CC(C)(C)Cn1cc(-c2ccc(C#N)nc2-c2cnc3cccnc3c2)cn1 .
6.68

Check human M4 muscarinic acetylcholine receptor (Homo sapiens, UniProt P08173) data and give pEC50 for COc1cc2ccc(-c3nc(C)ccc3-c3cnn(CCC4CCOC4)c3)cc2nn1 (centres unmarked) .
6.64

Enter measured pEC50, system human M4 muscarinic acetylcholine receptor (Homo sapiens, UniProt P08173), for the compound shown: COc1cc2ccc(-c3nc(C)ccc3-c3cnn(CC4(C(F)(F)F)CCC4)c3)cc2nn1
6.82

Under human M4 muscarinic acetylcholine receptor (Homo sapiens, UniProt P08173), report pEC50 for COc1cc2ccc(-c3nc(C)ccc3-c3cnn(CC4CC(F)(F)C4)c3)cc2nn1
6.72

Identify measured pEC50 obtained with human M4 muscarinic acetylcholine receptor (Homo sapiens, UniProt P08173) for COc1cc2ccc(-c3nc(C)ccc3-c3cnn(CCC(C)(C)F)c3)cc2nn1 .
7.24

Write down the reported pEC50 (system: human M4 muscarinic acetylcholine receptor (Homo sapiens, UniProt P08173)) of CC(C)(C)CCn1cc(-c2ccc(C#N)nc2-c2ccc3cccnc3c2)cn1
7.28

# lookup: human M4 muscarinic acetylcholine receptor (Homo sapiens, UniProt P08173) pEC50, key = CC(C)CCn1cc(-c2ccc(C(F)(F)F)nc2-c2ccc3cccnc3c2)cn1
7.08

Please report the measured pEC50 for COc1cc2ccc(-c3nc(C)ccc3-c3cnn(CC4(C)CCOCC4)c3)cc2nn1 tested on human M4 muscarinic acetylcholine receptor (Homo sapiens, UniProt P08173).
7.20

Would you please give the reported pEC50 of COc1cc2ccc(-c3nc(C)ccc3-c3cnn(CC4CC5(CCC5)C4)c3)cc2nn1 with human M4 muscarinic acetylcholine receptor (Homo sapiens, UniProt P08173)?
7.00

Please indicate recorded pEC50 of COc1cc2ccc(-c3nc(C)ccc3-c3cnn(CC45CCC(CC4)CC5)c3)cc2nn1 measured with human M4 muscarinic acetylcholine receptor (Homo sapiens, UniProt P08173).
7.85

Please respond with reported pEC50 (system human M4 muscarinic acetylcholine receptor (Homo sapiens, UniProt P08173)) for COc1cc2ccc(-c3nc(C)ccc3-c3cnn(CC4CCOC4)c3)cc2nn1 (centres unmarked) .
6.74

Answer briefly: pEC50 recorded on human M4 muscarinic acetylcholine receptor (Homo sapiens, UniProt P08173) for Cc1ccc(-c2cnn(Cc3ccccc3)c2)c(-c2ccc3cccnc3c2)n1
7.04

State, for human M4 muscarinic acetylcholine receptor (Homo sapiens, UniProt P08173), measured pEC50 of the compound listed here: CC(C)(C)Cn1cc(-c2ccc(C(F)F)nc2-c2ccc3cccnc3c2)cn1
7.32

Please respond with reported pEC50 (system human M4 muscarinic acetylcholine receptor (Homo sapiens, UniProt P08173)) for Cc1ccc(-c2cnn(CC(C)(C)C)c2)c(-c2ccc3cccnc3c2)n1 .
7.72

Give human M4 muscarinic acetylcholine receptor (Homo sapiens, UniProt P08173) pEC50 for the following compound: COc1cc2ccc(-c3nc(C#N)c(C)cc3-c3cnn(CC(C)(C)OC)c3)cc2nn1
7.08
